# TESTED_SYSTEM: Melatonin receptor type 1B (Homo sapiens) (UniProt P49286)
# Sequence (P49286 whole entry): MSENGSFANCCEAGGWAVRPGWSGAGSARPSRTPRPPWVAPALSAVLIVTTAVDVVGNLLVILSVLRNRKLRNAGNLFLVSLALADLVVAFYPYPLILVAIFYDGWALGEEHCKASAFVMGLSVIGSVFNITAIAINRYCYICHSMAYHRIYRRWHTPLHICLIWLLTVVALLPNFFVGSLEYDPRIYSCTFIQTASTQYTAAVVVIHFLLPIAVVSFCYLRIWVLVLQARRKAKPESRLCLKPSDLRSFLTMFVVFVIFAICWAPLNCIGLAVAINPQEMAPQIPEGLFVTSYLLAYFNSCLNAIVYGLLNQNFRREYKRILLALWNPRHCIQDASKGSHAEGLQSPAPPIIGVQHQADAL
# EXPERIMENT_NOTES: Binding affinity against melatonin receptor type 1B; also: unit not given here
Listing of entries alongside the reported pC1.
Give the value as a plain number.

1. COc1ccc2oc(Cc3cccc(F)c3)c(CCNC(C)=O)c2c1 | 3.64
2. COc1ccc(Cc2oc3ccc(OC)cc3c2CCNC(C)=O)cc1 | 3.3
3. CCCC(=O)NCCc1c(Cc2ccccc2)oc2ccc(OC)cc12 | 3.7
4. COc1ccc2oc(Cc3ccccc3)c(CCNC(=O)CI)c2c1 | 3.39
5. CCCCCOc1ccc2oc(Cc3ccccc3)c(CCNC(C)=O)c2c1 | 2.01

Incoming: May I ask what pC1 has been recorded for CNC(=O)NCCc1c(Cc2ccccc2)oc2ccc(OC)cc12 ?
Outgoing: 3.46

Incoming: Bench note: what pC1 did CNC(=O)NCCc1c(-c2ccccc2)oc2ccc(OC)cc12 show?
Outgoing: 4.4

Incoming: I am curious: what pC1 value has been reported for COc1ccc2oc(Cc3c(Cl)cccc3Cl)c(CCNC(C)=O)c2c1 ?
Outgoing: 1.89

Incoming: Need pC1 of C=CC(=O)NCCc1c(Cc2ccccc2)oc2ccc(OC)cc12 , thanks.
Outgoing: 3.16

###

# TESTED_SYSTEM: Melatonin receptor type 1B (Homo sapiens) (UniProt P49286)
# EXPERIMENT_NOTES: Binding affinity against melatonin receptor type 1B; also: unit not given here
If the reported pC1 equals or exceeds 2, assign TRUE. If not, assign FALSE.

1. COc1ccc2oc(-c3ccccc3)c(CCNC(C)=O)c2c1 | TRUE
2. CC(=O)NCCc1c(Cc2ccccc2)oc2ccc(O)cc12 | FALSE
3. C/C=C/C(=O)NCCc1c(-c2ccccc2)oc2ccc(OC)cc12 | TRUE
4. COc1ccc2oc(Cc3cccc(C(F)(F)F)c3)c(CCNC(C)=O)c2c1 | TRUE
5. COc1cccc(Cc2oc3ccccc3c2CCNC(C)=O)c1 | FALSE
6. CCCCCCOc1ccc2oc(Cc3ccccc3)c(CCNC(C)=O)c2c1 | TRUE

Incoming: Tell me whether pC1 is at least 2 here: COc1ccc2oc(Cc3cccc(Cl)c3)c(CCNC(C)=O)c2c1
Outgoing: TRUE

###

# TESTED_SYSTEM: Melatonin receptor type 1A (Homo sapiens) (UniProt P48039)
# Sequence (P48039 whole entry): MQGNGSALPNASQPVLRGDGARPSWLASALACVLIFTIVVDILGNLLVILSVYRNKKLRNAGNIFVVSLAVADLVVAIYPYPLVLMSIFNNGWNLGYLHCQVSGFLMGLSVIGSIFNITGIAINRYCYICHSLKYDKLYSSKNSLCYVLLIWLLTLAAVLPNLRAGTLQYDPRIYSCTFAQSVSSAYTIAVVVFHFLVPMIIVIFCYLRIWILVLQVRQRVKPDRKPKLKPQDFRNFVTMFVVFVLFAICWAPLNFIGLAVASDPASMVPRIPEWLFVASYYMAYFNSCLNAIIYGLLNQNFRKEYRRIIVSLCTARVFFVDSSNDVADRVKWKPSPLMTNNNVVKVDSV
# EXPERIMENT_NOTES: Binding affinity against Melatonin receptor type 1A; also: unit not given here
RESULT_TYPE: pC1
Lab note: jot the number down without any unit.

1) COc1ccc2oc(Cc3ccccc3OC)c(CCNC(C)=O)c2c1 | 1.84

Incoming: Need pC1 of COc1ccc2oc(Cc3cc(C(F)(F)F)cc(C(F)(F)F)c3)c(CCNC(C)=O)c2c1 , thanks.
Outgoing: 0.322

Incoming: May I ask what pC1 has been recorded for C=CC(=O)NCCc1c(-c2ccccc2)oc2ccc(OC)cc12 ?
Outgoing: 4.7

Incoming: Any idea what pC1 was measured for CCCCCCOc1ccc2oc(Cc3ccccc3)c(CCNC(C)=O)c2c1 ?
Outgoing: 2.09

###

# TESTED_SYSTEM: UniProt:P48039
# EXPERIMENT_NOTES: Binding affinity against Melatonin receptor type 1A; also: unit not given here
RESULT_TYPE: pC1
Please give only the number in your answer, with no unit.

Recorded pC1, per entry:
1) COc1ccc2oc(Cc3cccc(Cl)c3)c(CCNC(C)=O)c2c1 | 2.14
2) CCCCCOc1ccc2oc(Cc3ccccc3)c(CCNC(C)=O)c2c1 | 1.37
3) COc1ccc2oc(CC3CCCCC3)c(CCNC(C)=O)c2c1 | 1.18
4) CCc1ccc2oc(Cc3cccc(OC)c3)c(CCNC(C)=O)c2c1 | 0.541
5) C=CCC(=O)NCCc1c(Cc2ccccc2)oc2ccc(OC)cc12 | 2.46

Incoming: State its pC1 on UniProt:P48039: COc1cccc(Cc2oc3ccccc3c2CCNC(C)=O)c1
Outgoing: 0.64

Incoming: Recall the recorded pC1 for COc1ccc2oc(-c3ccccc3)c(CCNC(C)=O)c2c1 with UniProt:P48039 and state it.
Outgoing: 5

Incoming: Please state recorded pC1 (tested on UniProt:P48039) of C=CC(=O)NCCc1c(Cc2cccc(OC)c2)oc2ccc(OC)cc12
Outgoing: 1.26

Incoming: Give the reported pC1 for CNC(=O)NCCc1c(Cc2ccccc2)oc2ccc(OC)cc12 (system: UniProt:P48039).
Outgoing: 2.27

Incoming: Form entry - test system: UniProt:P48039; read-out: pC1; molecule: COc1ccc2oc(CCCc3ccccc3)c(CCNC(C)=O)c2c1
Outgoing: 1.5
